- Tested on: adult laboratory mice of the NMRI-strain
- assayExplanation: CNS-Depression: Sliding test (loss of holding reflex on inclined glass plate)
- Format: in vivo
- runParameters: po, mouse; dose at which 50% of animals begin to slide off the glass plate; Probit-method
experimentalReadout: ED50 (mg/kg)
Answers are plain numbers, in mg/kg.

molecule: CC(Cc1ccc2c(c1)OCO2)N1CCN(c2ccccc2Cl)CC1 (centres unmarked)
experimentalReadout: ED50
recordedNumber: 2.2

For each of the molecules below, state ED50.
1. COc1ccc(N2CCN(C(C)Cc3ccc4c(c3)OCO4)CC2)c(C)c1 (centres unmarked)
2. CC(Cc1ccc2c(c1)OCO2)N1CCN(c2ccc(Cl)cc2Cl)CC1 (centres unmarked)
3. Cc1cccc(C)c1N1CCN(C(C)Cc2ccc3c(c2)OCO3)CC1 (centres unmarked)

Output:
[960, 190, 25]
